# System: NCI-H226 lung
# assayNotes: NCI tumour cell line growth inhibition, 48 h
Listed here are compounds together with their documented TGI.
outcomeMeasure: TGI

1. N=C(N)c1ccc(-c2ccc(-c3cc(Cl)cc(Cl)c3)s2)s1 ... 65.4 µM
2. CN1N=C(c2ccncc2)OC1c1ccccc1F (stereo not drawn) ... > 100 µM
3. Cc1cccc(C)c1N1C(=O)C(=O)C(c2nc3ccccc3s2)C(=Nc2cccc3c(=O)[nH][nH]c(=O)c23)C1=O (stereo not drawn) ... > 100 µM
4. O=[N+]([O-])c1ccc(-c2cc3c(Nc4ccc(Cl)c(C(F)(F)F)c4)ncnc3s2)cc1 ... > 100 µM
5. CC(=O)n1c(=O)c2cc3c(=O)n(-c4cccc(C#N)c4)c(=O)c3cc2c1=O ... > 100 µM
6. COc1ccc(C2c3cc4c(cc3OC(NCCO)C2C)OCO4)cc1 (stereo not drawn) ... 90.2 µM
7. O=S1SC(=S)C2C=CC=CC21 (stereo not drawn) ... > 100 µM
8. N#Cc1c(-c2ccco2)cc(-c2ccccc2)[nH]c1=O ... > 100 µM
9. COc1cc(C2c3cc4c(cc3[C@@H](Nc3ccc5c(c3)OCO5)C3COC(=O)[C@H]23)OCO4)cc(OC)c1O (stereo partly drawn) ... 2.06 µM
10. COP(=O)(OC)C(Nc1ccc(Cc2ccc(NC(c3ccco3)P(=O)(OC)OC)cc2)cc1)c1ccco1 (stereo not drawn) ... > 100 µM
11. Cc1ccc(NC(=O)/C(Cc2nc3ccc([N+](=O)[O-])cc3[nH]c2=O)=N\NC(=O)C[n+]2ccccc2)c(C)c1 ... > 100 µM
12. COc1nc2c(N3CCCC3)nc(N3CCNCC3)nc2nc1NCc1ccccc1 ... 7.1 µM
13. CCN(CC)CCO/N=C1\CC[C@H]2[C@@H]3CCc4cc(OC)ccc4[C@H]3CC[C@]12C ... 4.69 µM
